List of GI50 values.
# Tested on: SF-539
# Test Name: NCI tumour cell line growth inhibition, 48 h
The source made the active and inactive calls. Cut-off read from the data, not from the text of the source: active = GI50 up to about 1.1 µM and inactive = higher.
Endpoint: GI50

                                    compound  endpoint       observed_value
 0              CCCCC1=C(Br)C(=C(Br)Br)OC1=O      GI50   3.26 µM (inactive)
 1  C=C1C(=O)C2=C[C@H]1C[C@H](O)C(=O)[C@]1(C)CCCC(C)(C)[C@H]1C[C@H]2O      GI50   1.33 µM (inactive)
 2  Nc1nc(N)c(-c2ccccc2)c(CCC(=O)Nc2ccc(Cl)cc2)n1      GI50  > 100 µM (inactive)
 3  COC1(OC)CC2C(=O)N(Cc3ccccc3)C1CC2S(=O)(=O)c1ccccc1 (stereo unspecified)      GI50  > 100 µM (inactive)
 4  CC(=O)[C@]12OC(=O)C3=C1[C@H](CC[C@@H]3C)[C@@H](C)C[C@H]2C=C(C)C      GI50   9.14 µM (inactive)
 5  C[C@H]1C/C=C/[C@H]2[C@@H]3O[C@]3(C)[C@@H](C)[C@H]3[C@H](Cc4ccccc4)NC(=O)[C@]32OC(=O)O/C=C/[C@@](C)(O)C1=O      GI50   0.0169 µM (active)
 6                    c1cc(CNCCN2CCNCC2)ccn1      GI50  > 100 µM (inactive)
 7  C[C@H]1CCC/C=C/[C@@H]2C[C@H](OC(=O)CN(C)C)C[C@H]2[C@H](O)/C=C/C(=O)O1      GI50    0.148 µM (active)
 8  CC(C)NC(C)Cc1ccccc1 (stereo unspecified)      GI50  > 100 µM (inactive)
 9  O=C(NCCC1([N+](=O)[O-])CCN(C(=O)c2ccccc2)CC1)c1ccccc1      GI50  > 100 µM (inactive)
10  Cc1cc(C)n(C(=O)CSc2nnc(SCC(=O)n3nc(C)cc3C)s2)n1      GI50  > 100 µM (inactive)
11  C(#Cc1ccccc1)SC1=C(c2ccccc2)S/C(=C(\SC#Cc2ccccc2)c2ccccc2)S1      GI50  > 100 µM (inactive)
12       O=[N+]([O-])c1ccc(CN(CCCl)OCCCl)cc1      GI50  > 100 µM (inactive)
13          Cc1cc(C)n(-c2ccnc3cc(Cl)ccc23)n1      GI50  > 100 µM (inactive)
14      C1CCCCC2(CCCCCCCCC3(CCC1)SCCS3)SCCS2      GI50  > 100 µM (inactive)
15      O=C1c2ccccc2CN1c1ccc(OCCN2CCCCC2)cc1      GI50   > 10 µM (inactive)
16             Cc1ccc(-c2n[nH]c(=O)[nH]2)cc1      GI50  > 100 µM (inactive)
17  O=[N+]([O-])c1ccccc1S(=O)(=O)N1CCCc2cc(Cl)ccc21      GI50   32.4 µM (inactive)
18      Cn1c(=O)c2[nH]c(CCC(=O)O)nc2n(C)c1=O      GI50  > 100 µM (inactive)
19  COc1ccccc1/C=C1\CCC(CN(C)C)C1=O (stereo unspecified)      GI50   7.41 µM (inactive)
20  CCCCCCC(/C=N/O)C(C)(O)CCC (stereo unspecified)      GI50  > 100 µM (inactive)

====

# Tested on: COLO 205
# Test Name: NCI tumour cell line growth inhibition, 48 h
Calls of active or inactive are those of the source. Cut-off read from the data, not from the text of the source: active = GI50 up to about 1.1 µM and inactive = higher.
Endpoint: GI50

In [3]: df
Out[3]:
                                    compound  endpoint       observed_value
 0                   Oc1cc(C2OCCCO2)cc(O)c1O      GI50  > 100 µM (inactive)
 1  O=[As](O)(O)c1cc(/N=N/c2ccc(-c3ccc(/N=N/c4cc([As](=O)(O)O)c(O)cc4O)cc3)cc2)c(O)cc1O      GI50  > 100 µM (inactive)
 2  COc1cc(C2c3cc4c(cc3OC(N3CCCCC3)C2C)OCO4)cc(OC)c1OC (stereo not given)      GI50   3.02 µM (inactive)
 3  CC(C)(C)OC(=O)NCC(c1c[nH]c2cc(Br)ccc12)c1c[nH]c2cc(Br)ccc12      GI50   15.6 µM (inactive)
 4  O=[N+]([O-])c1ccccc1S(=O)(=O)N1CCCc2cc(Cl)ccc21      GI50   38.7 µM (inactive)
 5  COc1ccc(-c2c(C#N)c(=O)nc(SC)n2C2OCC(OC(C)=O)C(OC(C)=O)C2OC(C)=O)cc1 (stereo not given)      GI50  > 100 µM (inactive)
 6  C[C@]12CC[C@H]3[C@@H](CCC4=C[C@@H](N5CCCC5)CC[C@@]43C)[C@@H]1C/C(=C\c1ccncc1)[C@@H]2O      GI50   6.32 µM (inactive)
 7  Cc1ccc(C(C)C)c(OCC(=O)N/N=C/c2c[nH]c3ccc(Br)cc23)c1      GI50   1.69 µM (inactive)
 8  O=[N+]([O-])c1ccc(C2c3c(O)nc(O)nc3Oc3nc(O)nc(O)c32)cc1      GI50  > 100 µM (inactive)
 9  [O-][S+](Nc1ccccc1)c1ccc(N2CCOCC2)cc1 (stereo not given)      GI50   59.6 µM (inactive)
10               Cc1cc2nc3[nH]nc(N)c3nc2cc1C      GI50   44.4 µM (inactive)
11  OC12c3ccccc3C1CCCCCC21OCCCO1 (stereo not given)      GI50  > 100 µM (inactive)
12               Cc1nc2ccc(Cl)cc2c(Cl)c1CCCl      GI50   57.3 µM (inactive)
13        Clc1ccc(/N=C/C=C/Nc2ccc(Cl)cn2)nc1      GI50   12.6 µM (inactive)
14  Cc1c(C)c2c(c(N)c1C#N)C(=O)N(OS(=O)(=O)c1ccccc1)C2=O      GI50   21.8 µM (inactive)
15  C[C@H]1CC[C@@H]2[C@@H](C)[C@H]3[C@H](C[C@H]4[C@@H]5CC=C6C[C@@H](O)CC[C@]6(C)[C@H]5C[C@H](O)[C@]34C)N2C1      GI50  > 100 µM (inactive)
16  ClC1(Cl)C(c2ccccc2)C1c1ccccc1 (stereo not given)      GI50     36 µM (inactive)
17  O=C(O)c1cc(C(=O)C(=O)c2cc(C(=O)O)c(O)c3ccccc23)c2ccccc2c1O      GI50  > 100 µM (inactive)
18  CN1c2ccc(Cl)cc2C(=O)NC1c1ccc([N+](=O)[O-])s1 (stereo not given)      GI50   21.5 µM (inactive)
19  Cc1cccc(Cl)c1NC(=O)c1cccc([N+](=O)[O-])c1O      GI50   51.5 µM (inactive)

====

List of GI50 values.
# System: M14
# Test Name: NCI tumour cell line growth inhibition, 48 h
Calls of active or inactive are those of the source. Rule as the data show it: active = GI50 up to about 1.1 µM and inactive = higher. Where a SMILES comes first, the peptide text is derived from it. [ ]: non-standard residue; d: D form. The star is where a group is joined. ξ: configuration not given here. NMeF = CN[C@@H](Cc1ccccc1)C(=O)O; NMeV = CN[C@H](C(=O)O)C(C)C; ξNMeN = CNC(CC(N)=O)C(=O)O; NMeA = CN[C@@H](C)C(=O)O; ξNMeV = CNC(C(=O)O)C(C)C; Boc = CC(C)(C)OC(=O)*

Molecule	GI50
O=C(NC1C(O)C(O)C(CO)OC1n1cc(F)c(=O)[nH]c1=O)OCc1ccccc1 (stereo not drawn)	> 100 µM (inactive)
CN1C(=O)N/C(=C\c2ccc(S(=O)(=O)N/N=C/c3ccccc3)cc2)C1=O	37 µM (inactive)
Cn1nc(-c2ccccc2)c(C(=O)/C=C/c2ccccc2)c(N2CCCCC2)c1=O	47.6 µM (inactive)
CCOC(=O)C1C(=O)CC(C)(O)C(C(=O)OCC)C1c1ccc(OC)cc1 (stereo not drawn)	> 100 µM (inactive)
COC(=O)c1ccc(C)cc1C1CN=NC12Cc1cc(C)ccc1C2=O (stereo not drawn)	9.31 µM (inactive)
ClC1(Cl)C(c2ccccc2)C1c1ccccc1 (stereo not drawn)	27.7 µM (inactive)
COC(=O)[C@H](C)N(C)C(=O)C(CC(N)=O)N(C)C(=O)[C@H](Cc1ccccc1)N(C)C(=O)[C@@H]1CCCN1C(=O)[C@H](C(C)C)N(C)C(=O)C(C(C)C)N(C)C(=O)[C@@H](NC(=O)OC(C)(C)C)C(C)C (stereo partly drawn) (Boc-V[ξNMeV][NMeV]P[NMeF][ξNMeN][NMeA]-OMe)	> 50 µM (inactive)
CCOc1ccc(/N=C(/NC(=O)c2ccccc2)SC)cc1	> 100 µM (inactive)
